test system: HCT116 cells; assay: MTT assay; assay type: cell-based; conditions: Homo sapiens, HCT-116, 72 h, Table 5F; HCT116 cells, 72 hours
pIC50: −log10 of the molar value.
Record true (1) whenever pIC50 is at 6 or higher; record false (0) when lower.

| compound | label |
| --- | --- |
| Nc1ccccc1NC(=O)c1ccc(CNc2nc3cc(Br)ccc3s2)cc1 | true (1) |
| Cc1cc(C)nc(NCc2ccc(C(=O)Nc3ccccc3N)cc2)c1 | true (1) |
| COc1ccc(CNc2ccc(C3CC3C(=O)Nc3ccccc3N)cn2)cc1 (stereo not shown) | false (0) |

# input For this compound, is measured pIC50 6 or higher? Cc1onc2c1c(=O)n(Cc1ccc(C(=O)Nc3ccccc3N)cc1)c1cccc(Cl)c21
# output true (1)

# input Check Cn1c(=O)c2cc(NCc3ccc(C(=O)Nc4ccccc4N)cc3)ccc2n(C)c1=O too.
# output true (1)

# input COc1ccc(N(Cc2ccc(C(=O)Nc3ccccc3N)cc2)C(=O)Nc2ccc(Cl)cc2)cc1OC ?
# output true (1)

# input Moving on to Nc1ccccc1NC(=O)c1ccc(CC2COc3ccccc3C2)cc1 (stereo not shown)
# output false (0)

# input Likewise for Nc1ccccc1NC(=O)c1ccc(CNc2nccc(N3CCOCC3)n2)cc1 ?
# output true (1)

# input One more compound: Cc1nc(-c2ccc(C(=O)Nc3ccccc3N)cc2)no1
# output false (0)

# input How about Cn1c2ccc(NCc3ccc(C(=O)Nc4ccccc4N)cc3)cc2c2nc3ccccc3nc21 ?
# output true (1)

# input Same for CNc1nc2cc(NCc3ccc(C(=O)Nc4ccccc4N)cc3)ccc2s1
# output true (1)
